Data origin, for the record: patent US20220040297A1

# assayed system: T1, CD3ε homodimer protein (human, UniProt P07766 23-126, limits assumed)
# T1 construct: Whole entry named for the human CD3 epsilon chain
# T1 sequence (P07766 23-126 limits assumed): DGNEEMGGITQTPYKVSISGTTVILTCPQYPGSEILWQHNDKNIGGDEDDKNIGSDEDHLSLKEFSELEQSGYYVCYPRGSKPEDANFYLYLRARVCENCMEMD
# assay overview: SPR, CD3e immobilized
readout kind: KD ratio to GLS3000

- binder: "GLS3000 T92Y (antibody, IgG1, name in Kabat numbering, V domains shown) VH: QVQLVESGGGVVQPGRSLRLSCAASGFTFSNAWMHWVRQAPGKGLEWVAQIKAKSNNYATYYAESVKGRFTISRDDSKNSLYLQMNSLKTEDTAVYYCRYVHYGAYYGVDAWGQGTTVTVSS VL: DIVMTQSPLSLPVTPGEPASISCRSSQSLVHSNRNTYLHWYQQKPGQAPRLLIYKVSNRFSGVPDRFSGSGSGTDFTLKISRVEAEDVGVYYCGQGYQVPYTFGQGTKLEIK"
  readout kind: "KD ratio to GLS3000"
  observed result: 2.53
- binder: "GLS3000 S27eE (antibody, IgG1, name in Kabat numbering, V domains shown) VH: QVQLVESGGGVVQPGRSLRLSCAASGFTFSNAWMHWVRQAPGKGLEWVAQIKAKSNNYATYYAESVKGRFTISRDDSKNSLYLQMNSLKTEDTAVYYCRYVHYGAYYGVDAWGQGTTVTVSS VL: DIVMTQSPLSLPVTPGEPASISCRSSQSLVHENRNTYLHWYQQKPGQAPRLLIYKVSNRFSGVPDRFSGSGSGTDFTLKISRVEAEDVGVYYCGQGTQVPYTFGQGTKLEIK"
  readout kind: "KD ratio to GLS3000"
  observed result: 1.84
- binder: "GLS3000 P95E (antibody, IgG1, name in Kabat numbering, V domains shown) VH: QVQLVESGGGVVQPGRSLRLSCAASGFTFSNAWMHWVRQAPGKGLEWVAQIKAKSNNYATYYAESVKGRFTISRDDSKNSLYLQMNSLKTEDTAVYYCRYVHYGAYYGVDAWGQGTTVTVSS VL: DIVMTQSPLSLPVTPGEPASISCRSSQSLVHSNRNTYLHWYQQKPGQAPRLLIYKVSNRFSGVPDRFSGSGSGTDFTLKISRVEAEDVGVYYCGQGTQVEYTFGQGTKLEIK"
  readout kind: "KD ratio to GLS3000"
  observed result: 1.61
